# experimental.system: E. coli Uridine-diphosphate-N-acetylmuramoyl-L-alanine: D-glutamate liease, MurD (Escherichia coli)
# Sequence (P14900 whole entry): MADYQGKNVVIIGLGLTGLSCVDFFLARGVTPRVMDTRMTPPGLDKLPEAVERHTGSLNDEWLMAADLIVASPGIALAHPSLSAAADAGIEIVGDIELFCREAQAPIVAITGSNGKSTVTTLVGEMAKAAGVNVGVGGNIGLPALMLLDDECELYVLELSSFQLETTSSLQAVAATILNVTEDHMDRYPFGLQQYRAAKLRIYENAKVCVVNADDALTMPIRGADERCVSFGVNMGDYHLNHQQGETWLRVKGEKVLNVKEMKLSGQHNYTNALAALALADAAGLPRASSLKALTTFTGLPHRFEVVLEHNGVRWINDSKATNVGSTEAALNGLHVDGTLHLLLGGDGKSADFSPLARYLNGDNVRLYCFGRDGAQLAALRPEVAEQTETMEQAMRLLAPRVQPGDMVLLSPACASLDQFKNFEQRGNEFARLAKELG
What IC50 was measured for each of the following?

Recall and state the measured IC50 for `O=C1O/C(=C\c2cccc3ccccc23)C(O)=C1c1cccc2ccccc12` .
> 68.6 µM

Recall and state the measured IC50 for `O=C1O/C(=C\c2ccc(Cl)cc2)C(O)=C1c1ccc2ccccc2c1` .
> 71.7 µM

Recall and state the measured IC50 for `COc1ccccc1-c1ccc(/C=C2\OC(=O)C(c3cc(Cl)cc(Cl)c3)=C2O)cc1OC` .
> 53.3 µM

Recall and state the measured IC50 for `Cc1ccc(/C=C2\OC(=O)C(c3ccc(-c4ccccc4)cc3)=C2O)s1` .
> 69.4 µM

Recall and state the measured IC50 for `O=C1O/C(=C\c2cccc(C(F)(F)F)c2)C(O)=C1c1cccc(-c2ccccc2)c1` .
> 61.2 µM

Recall and state the measured IC50 for `CCCc1ccc(-c2ccc(C3=C(O)/C(=C/c4cccc(C(F)(F)F)c4)OC3=O)cc2)cc1` .
20 µM

Recall and state the measured IC50 for `O=C1O/C(=C\c2ccc(Cl)cc2)C(O)=C1c1cccc2ccccc12` .
> 71.7 µM

Recall and state the measured IC50 for `O=C1O/C(=C\c2ccc(-c3ccccc3)cc2)C(O)=C1c1ccc(Cl)cc1Cl` .
58.6 µM

----------
# Test system: larvae of blowfly, Lucilia sericata
# assay.info: whole plant or invertebrate
# conditions.used: dose rate of 20 ppm; Lucilia sericata larvae on treated filter paper with bovine serum; assessed at 24 h
recorded.metric: % Mortality 24 h (%)
Dear colleague, please return just the value in %, with no unit written.

Recall and state the measured % Mortality 24 h for N#Cc1cccc(C2=C(O)C(=Cc3ccc(C(F)(F)F)cc3)OC2=O)c1 (mixture of isomers) .
0

Recall and state the measured % Mortality 24 h for N#Cc1ccc(C=C2OC(=O)C(c3cccc(C(F)(F)F)c3)=C2O)cc1 (mixture of isomers) .
20

Recall and state the measured % Mortality 24 h for `CC(=O)Nc1cccc(C2=C(O)/C(=C/c3ccc(-c4cccc(NC(C)=O)c4)cc3)OC2=O)c1` .
0

Recall and state the measured % Mortality 24 h for O=C1OC(=Cc2ccc(C(F)(F)F)cc2)C(O)=C1c1cccc(C(F)(F)F)c1 (mixture of isomers) .
100

Recall and state the measured % Mortality 24 h for N#Cc1ccc(C=C2OC(=O)C(c3ccc(-c4ccc(Cl)cc4)cc3)=C2O)cc1 (mixture of isomers) .
0

Recall and state the measured % Mortality 24 h for `O=C1O/C(=C\c2cccc3ccccc23)C(O)=C1c1cccc(CO)c1` .
0

Recall and state the measured % Mortality 24 h for N#Cc1cccc(C2=C(O)C(=Cc3ccc(-c4ccc(Cl)cc4)cc3)OC2=O)c1 (mixture of isomers) .
0

Recall and state the measured % Mortality 24 h for `CC(C)(C)c1ccc(-c2ccc(C3=C(O)C(=Cc4ccc(-c5ccccc5)cc4)OC3=O)cc2)cc1` .
0
